Value source: PubChem BioAssay AID1159580

- procedure.details: chemical genetic growth profiling, strain panel (AID 1159580);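 further: tested at 20 µM; growth read once vehicle control cultures reached saturation at 30 °C; 1 = growth at the plate median or of vehicle wells; lower values mean less growth of the strain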
- test.context: S. cerevisiae deletion strains, growth OD, locus YML124C, strain tub3, stronger effect = lower value
Screen size: about 5,500 compounds; about 2,000 (36%) were called active. About 18% were inconclusive and are not listed. This is one part of the list.
Below, each entry is listed with its recorded normalized growth.
observation.type: normalized growth

{"molecule": "COc1cc2c(cc1OC)C1(O)C(=O)c3ccc(O)c(C(=O)O)c3OC1CO2 (centres undefined)", "reported": 0.99}
{"molecule": "C=C[C@@]1(C)CC(=O)[C@@]2(O)[C@](C)(O1)[C@@H](OC(C)=O)[C@@H](O)C1C(C)(C)CC[C@H](O)[C@@]12C (some centres undefined)", "reported": 0.983}
{"molecule": "O=C(O)COc1ccc(Cl)cc1Cl", "reported": 1.02}
{"molecule": "C[C@]12CCC3c4ccc(O)cc4CCC3C1CCC2=O (some centres undefined)", "reported": 1.02}

====

- procedure.details: chemical genetic growth profiling, strain panel (AID 1159580);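 further: tested at 20 µM; growth read once vehicle control cultures reached saturation at 30 °C; 1 = growth at the plate median or of vehicle wells; lower values mean less growth of the strain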
- test.context: S. cerevisiae deletion strains, growth OD, locus YJL187C, strain SWE1 (second series), stronger effect = lower value
In all, about 5,500 compounds went through this assay and about 2,000 (36%) were called active. Roughly 18% stayed inconclusive and do not appear here. Some of the results follow.
// NB: equality with 1 counts as 0.0; only normalized growth strictly below is 1.0

{"molecule": "CCC(C)C(=O)c1c(O)c(C)c2oc3c(C)c(O)c(C(=O)C(C)CC)c(O)c3c2c1O (stereo not drawn)", "qualitative.label": 1.0}
{"molecule": "COc1ccc2c(c1)OCC(Cc1ccc(OC)c(OC)c1)C2=O (stereo not drawn)", "qualitative.label": 1.0}
{"molecule": "CC(=O)C1CCC2C3CCC4C[C@H](O)CCC4(C)C3C[C@H](O)C12C (stereo partly drawn)", "qualitative.label": 0.0}
{"molecule": "COc1ccc2oc3ccccc3c(=O)c2c1", "qualitative.label": 1.0}
{"molecule": "COc1ccc2c(=O)c(OC)c(-c3ccccc3)oc2c1", "qualitative.label": 1.0}
{"molecule": "NCCCCNCCCN", "qualitative.label": 1.0}

====

- procedure.details: chemical genetic growth profiling, strain panel (AID 1159580);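 further: tested at 20 µM; growth read once vehicle control cultures reached saturation at 30 °C; 1 = growth at the plate median or of vehicle wells; lower values mean less growth of the strain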
- test.context: S. cerevisiae deletion strains, growth OD, locus YPL078C, strain atp4, stronger effect = lower value
Screen size: about 5,500 compounds; about 2,000 (36%) were called active. About 18% were inconclusive and are not listed. Some of the results follow.
observation.type: normalized growth

{"compound": "CC(=O)O[C@@H]1CC2C(C)(C)[C@H](O)CC[C@]2(C)C2CC[C@@]3(C)[C@H](c4ccoc4)OC(=O)C4OC43[C@@]21C (stereo partly drawn)", "reported": 0.973}
{"compound": "COc1ccc2nc(S(=O)Cc3ncc(C)c(OC)c3C)[nH]c2c1 (stereo not drawn)", "reported": 0.989}
{"compound": "COc1ccnc(CS(=O)c2nc3ccc(OC(F)F)cc3[nH]2)c1OC (stereo not drawn)", "reported": 1.04}

====

- procedure.details: chemical genetic growth profiling, strain panel (AID 1159580);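 further: tested at 20 µM; growth read once vehicle control cultures reached saturation at 30 °C; 1 = growth at the plate median or of vehicle wells; lower values mean less growth of the strain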
- test.context: S. cerevisiae deletion strains, growth OD, locus YAL030W, strain snc1, stronger effect = lower value
The campaign covered roughly 5,500 compounds. About 2,000 (36%) were called active. Inconclusive results (about 18%) are left out. The list shows a part of the results.
Below, each entry is listed with its recorded normalized growth.

{"compound": "Fc1ccc([C@@H]2CCNC[C@H]2COc2ccc3c(c2)OCO3)cc1", "normalized growth": 1.01}
{"compound": "C[C@@H]1CC2C3CCC4=CC(=O)C=C[C@]4(C)[C@@]3(F)[C@@H](O)C[C@]2(C)[C@@]1(O)C(=O)CO (stereo not given in full)", "normalized growth": 0.969}
{"compound": "COC[C@]12CN(C=O)C3[C@@H]4[C@H](OC)C1[C@]3(C1CC3(O)C(OC)C(O)C4(OC(C)=O)C1C3OC(=O)c1ccccc1)[C@@H](OC)C[C@H]2O (stereo not given in full)", "normalized growth": 1.01}
{"compound": "CCC(C)C(=O)c1c(O)c(C)c2oc3c(C)c(O)c(C(=O)C(C)CC)c(O)c3c2c1O (stereo not given)", "normalized growth": 0.983}
{"compound": "O=NN(CCCl)C(=O)NCCCl", "normalized growth": 0.958}
{"compound": "CC(C)c1nc(N(C)S(C)(=O)=O)nc(-c2ccc(F)cc2)c1/C=C/[C@@H](O)C[C@@H](O)CC(=O)O", "normalized growth": 0.998}
{"compound": "O=C(O)C1CCCNC1 (stereo not given)", "normalized growth": 1.02}
{"compound": "COc1ccc2c(c1)OCC(Cc1ccc(OC)c(O)c1)C2=O (stereo not given)", "normalized growth": 0.953}
{"compound": "CCCNC(=O)NS(=O)(=O)c1ccc(Cl)cc1", "normalized growth": 1.01}
{"compound": "CCC(=O)OC1[C@@H]2CC3=C4CC(=O)O[C@@H](c5ccoc5)[C@]4(C)CCC3[C@@](C)(C2=O)[C@@H](CC(=O)OC)C1(C)C (stereo not given in full)", "normalized growth": 0.998}
